The measurements presented in this section are drawn from patent US20260242735A1.

Biological target: human CD33 H45Y (human, UniProt P20138 18-364)
Sequence (P20138 18-364 H45Y limits assumed): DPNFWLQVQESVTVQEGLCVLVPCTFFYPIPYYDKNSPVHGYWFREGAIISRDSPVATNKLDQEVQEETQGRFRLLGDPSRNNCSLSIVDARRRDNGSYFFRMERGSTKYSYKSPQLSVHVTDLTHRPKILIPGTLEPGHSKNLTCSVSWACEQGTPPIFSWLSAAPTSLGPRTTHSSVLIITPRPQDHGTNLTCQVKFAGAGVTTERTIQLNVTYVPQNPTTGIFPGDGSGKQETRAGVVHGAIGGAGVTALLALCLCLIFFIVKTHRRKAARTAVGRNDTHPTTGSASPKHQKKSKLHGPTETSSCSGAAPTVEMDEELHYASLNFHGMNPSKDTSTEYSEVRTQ
Test: flow cytometry, mutant on cells, IgG

{"Binder": "Refmab #1 (antibody, human IgG1, V domains shown, Tested in IgG format; human IgG1 (Absolute Antibody hP67.6, Cat. No. Ab00283-10.0); also called hP67.6) VH: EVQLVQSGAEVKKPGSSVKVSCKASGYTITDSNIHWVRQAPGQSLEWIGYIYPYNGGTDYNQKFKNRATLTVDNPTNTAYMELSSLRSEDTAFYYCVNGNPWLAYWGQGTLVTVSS VL: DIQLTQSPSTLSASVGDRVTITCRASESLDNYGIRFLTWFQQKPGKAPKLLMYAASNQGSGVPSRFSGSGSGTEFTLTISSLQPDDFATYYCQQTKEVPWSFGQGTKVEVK", "Mean % WT Binding / % WT binding": 80.3}
{"Binder": "Refmab #3 (antibody, human IgG1, V domains shown, Tested in IgG format; human IgG1 Fc silent (PG-LALA)) VH: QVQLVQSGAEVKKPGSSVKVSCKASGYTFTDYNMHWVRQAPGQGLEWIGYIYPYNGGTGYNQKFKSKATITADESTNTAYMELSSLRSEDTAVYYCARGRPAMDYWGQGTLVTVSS VL: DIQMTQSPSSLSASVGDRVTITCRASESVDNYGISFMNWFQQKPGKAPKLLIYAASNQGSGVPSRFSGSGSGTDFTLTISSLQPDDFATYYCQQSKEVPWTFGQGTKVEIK", "Mean % WT Binding / % WT binding": 4}
{"Binder": "Refmab #2 (antibody, human IgG1, V domains shown, Tested in IgG format; human IgG1 Fc silent (PG-LALA)) VH: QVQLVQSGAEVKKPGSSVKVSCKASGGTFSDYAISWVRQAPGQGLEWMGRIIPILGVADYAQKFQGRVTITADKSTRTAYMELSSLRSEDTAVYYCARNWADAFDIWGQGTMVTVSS VL: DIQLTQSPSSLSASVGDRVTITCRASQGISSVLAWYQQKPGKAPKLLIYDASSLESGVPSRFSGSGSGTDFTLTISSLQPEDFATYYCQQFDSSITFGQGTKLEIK", "Mean % WT Binding / % WT binding": 80.7}
{"Binder": "Refmab #4 (antibody, human IgG1, V domains shown, Tested in IgG format; human IgG1 Fc silent (PG-LALA)) VH: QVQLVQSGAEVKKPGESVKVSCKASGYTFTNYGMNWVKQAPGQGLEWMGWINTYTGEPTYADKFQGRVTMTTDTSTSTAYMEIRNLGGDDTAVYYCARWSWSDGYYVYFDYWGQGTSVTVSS VL: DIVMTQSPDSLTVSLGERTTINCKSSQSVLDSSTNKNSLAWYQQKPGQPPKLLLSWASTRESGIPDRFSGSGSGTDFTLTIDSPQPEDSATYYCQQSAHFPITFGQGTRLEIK", "Mean % WT Binding / % WT binding": 79.2}
